target: T1, recombinant human CFD, His-tagged (human, UniProt P00746 26-253); assay: SPR MX96
T1 construct: also called rhCFD-His
T1 sequence (P00746 26-253 limits assumed): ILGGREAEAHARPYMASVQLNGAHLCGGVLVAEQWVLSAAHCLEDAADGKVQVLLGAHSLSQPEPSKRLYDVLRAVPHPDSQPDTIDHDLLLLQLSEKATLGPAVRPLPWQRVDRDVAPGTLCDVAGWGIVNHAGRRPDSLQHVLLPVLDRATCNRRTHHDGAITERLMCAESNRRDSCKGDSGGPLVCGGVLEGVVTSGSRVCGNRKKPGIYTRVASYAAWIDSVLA
pKd: −log10 of the molar value.

>  <binder>
KCD118 (antibody, V domains shown, chimeric) VH: EVQLQQSGPELVKPGASVKISCKAFGYTFTDYYKNWMRQRHGESLEWIGDINPNSGDANYNQKFKGKATLTVDKSSSTAYMELRSLTSEDSAVYYCAREGPSFAYWGHGTLVTVSA VL: DVLMTQTPLSLPVSLGDQASISCRSSQTIVHSNGDTYLEWYLQKPGQSPNLLIYKVSNRFSGVPDRFSGSGSGTDFTLKISRVEAEDLGIYYCFQGSHVPPTFGGGTKLEIK

>  <pKd>
9.27

$$$$
>  <binder>
KCD002 (antibody, V domains shown, chimeric) VH: EVKLVESEGGLVQPGSSMKLSCTASGFTFSDYYMAWVRQVPEKGLEWVGNINYDGSSTYYLDSLKSRFIISRDSAKNILYLQMSSLKSEDTATYFCARGEDFYLYAMDYWGQGTSVTVSS VL: DIQMTQSPASLSASVGETVTITCRASENIHSYLAWYQQKQGKSPQLIVYNTKTLAEGVPSRFSGSGSGTQFSLKINSLQPEDFGSYYCQHHYGIPPTFGGGTKLEIK

>  <pKd>
9.96

$$$$
>  <binder>
KCD005 (antibody, V domains shown, chimeric) VH: EVQLQQSGPELVKPGASVKISCKASGYTFTDHYMNWVKQSHGKSLEWIGDINPNNGGTSCNQKFKGKATLTVDKSSSTAYMELRSLTSGDSAVYYCTREGASFAFWGQGTLVTVSA VL: DVLMTQTPLSLPVSLGDQASISCRSSQSIVHSNGDTYLEWYLQKPGQSPKLLIYKVSNRFSGVPDRFSGSGSGTDFTLKISRVEAEDLGVYYCFQGSHVPVTFGAGTKLELK

>  <pKd>
8.92

$$$$
